target: MAO-B (Homo sapiens); assay: MAO-B inhibition assay (kynuramine, fluorescence); assay type: biochemical; conditions: MAO-B; 50 μM; read-out: Inhibition rate ± SD (%) (50 μM)
Sequence (P27338 whole entry): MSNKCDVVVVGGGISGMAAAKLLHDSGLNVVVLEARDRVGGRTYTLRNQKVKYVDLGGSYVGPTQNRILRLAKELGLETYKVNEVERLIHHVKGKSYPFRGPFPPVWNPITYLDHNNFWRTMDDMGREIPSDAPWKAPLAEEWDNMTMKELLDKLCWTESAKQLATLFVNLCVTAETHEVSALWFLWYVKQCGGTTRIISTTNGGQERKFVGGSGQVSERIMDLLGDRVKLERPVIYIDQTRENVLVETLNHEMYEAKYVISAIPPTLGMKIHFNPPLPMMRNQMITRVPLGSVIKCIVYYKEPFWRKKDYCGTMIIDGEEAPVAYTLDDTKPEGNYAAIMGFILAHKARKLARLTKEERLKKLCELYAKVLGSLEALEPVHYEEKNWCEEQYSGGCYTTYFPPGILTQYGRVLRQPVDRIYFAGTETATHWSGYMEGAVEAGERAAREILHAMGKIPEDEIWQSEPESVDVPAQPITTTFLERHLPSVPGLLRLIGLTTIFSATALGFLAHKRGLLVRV
Readings of inhibition at 50 µM for the listed compounds
Measured metric: inhibition at 50 µM

1) CC1=CC(=O)CC(C)(C)[C@H]1/C=C/[C@@H](C)O
24%
2) CC(=O)/C=C/C/C(C)=C/CC/C(C)=C/CC/C(C)=C/CC/C(C)=C/CO
15.4%
3) OCCc1ccccc1
14.4%
4) O=C1C=CCCN1 [Compound 22, 5,6-dihydropyridin-2(1H)-one]
1.05%

* * *

biological target: MAO-B (Homo sapiens); experiment: MAO-B inhibition assay (kynuramine, fluorescence); format: biochemical; conditions: MAO-B; 50 μM; read-out: Inhibition rate ± SD (%) (50 μM)
Readings of inhibition at 50 µM for the listed molecules
Measured metric: inhibition at 50 µM (%)

1) COCc1ccc(C=O)[nH]1
22.2
2) C=C(C)/C=C/[C@@H](CC/C(C)=C/CC/C(C)=C/C=O)C(C)C
11
3) COc1cc(CCO)ccc1O
2.98
4) COc1cc(C(CO)OC)ccc1O (stereo not drawn) [Compound 19, 4-hydroxy-β,3-dimethoxybenzeneethanol]
3.71
